tested on: MRSA and MSSA; test: Antibacterial activity of gallic acid, various gallates and multivalent phenol derivatives alone (agar plate dilution method, MIC); format: cell-based, Staphylococcus aureus; settings: Staphylococcus aureus, MRSA #7; read-out: MIC alone
value type: MIC (µg/mL)

INSERT INTO results (molecule, target_entity, scale_unit, obs_value) VALUES
  ('CCCCCOC(=O)c1cc(O)c(O)c(O)c1 [Pentyl gallate, n-pentyl gallate]', 'MRSA and MSSA', 'µg/mL', 62.5),
  ('CCCCCCCCOC(=O)c1cc(O)c(O)c(O)c1 [Octyl gallate, n-octyl gallate]', 'MRSA and MSSA', 'µg/mL', 31.3),
  ('CCOC(=O)c1cc(O)c(O)c(O)c1 [Ethyl gallate, ethyl gallate]', 'MRSA and MSSA', 'µg/mL', 125),
  ('CCCCCCCCCCOC(=O)c1cc(O)c(O)c(O)c1 [Decyl gallate, n-decyl gallate]', 'MRSA and MSSA', 'µg/mL', 15.7),
  ('O=C(O)c1cc(O)c(O)c(O)c1 [Gallic acid, gallic acid, reference compound]', 'MRSA and MSSA', 'µg/mL', 62.5),
  ('CCCCCCCOC(=O)c1cc(O)c(O)c(O)c1 [Heptyl gallate, n-heptyl gallate]', 'MRSA and MSSA', 'µg/mL', 31.3);
